# System: HEK293T
# PROTOCOL_NOTES: plasma membrane surface immunostaining intensity (anti-HA, deep receptor scanning) (arbitrary fluorescence units); higher = higher plasma membrane expression
# CONDITION_DETAILS: GPCR class: A
plasma membrane surface immunostaining intensity by entry:
QUANTITY_KIND: plasma membrane surface immunostaining intensity

1) MGTEATEQVSWGHYSGDEEDAYSAEPLPELCYKADVQAFSRAFQPSVSLTVAALGLAGNGLVLATHLAARRAARSPTSAHLLQLALADLLLALTLPFAAAGALQGWSLGSATCRTISGLYSASFHAGFLFLACISADRYVAIARALPAGPRPSTPGRAHLVSVIVWLLSLLLALPALLFSQDGQREGQRRCRLIFPEGLTQTVKGASAVAQVALGFALPLGVMVACYALLGRTLLAARGPERRRALRVVVALVAAFVVLQLPYSLALLLDTADLLAARERSCPASKRKDVALLVTSGLALARCGLNPVLYAFLGLRFRQDLRRLLRGGSCPSGPQPRRGCPRRPRLSSCSAPTETHSLSWDN [CCR10] :: 424
2) MEEGGDFDNYYGADNQSECEYTDWKSSGALIPAIYMLVFLLGTTGNGLVLWTVFRSSREKRRSADIFIASLAVADLTFVVTLPLWATYTYRDYDWPFGTFFCKLSSYLIFVNMYASVFCLTGLSFDRYLAIVRPVANARLRLRVSGAVATAVLWVLAALLAMPVMVLRTTGDLENTTKVQCYMDYSMVATVSSEWAWEVGLGVSSTTVGFVVPFTIMLTCYFFIAQTIAGHFRKERIEGLRKRRRLLSIIVVLVVTFALCWMPYHLVKTLYMLGSLLHWPCDFDLFLMNIFPYCTCISYVNSCLNPFLYAFFDPRFRQACTSMLCCGQSRCAGTSHSSSGEKSASYSSGHSQGPGPNMGKGGEQMHEKSIPYSQETLVVD [APLNR] :: 6400
3) MKALIFAAAGLLLLLPTFCQSGMENDTNNLAKPTLPIKTFRGAPPNSFEEFPFSALEGWTGATITVKIKCPEESASHLHVKNATMGYLTSSLSTKLIPAIYLLVFVVGVPANAVTLWMLFFRTRSICTTVFYTNLAIADFLFCVTLPFKIAYHLNGNNWVFGEVLCRATTVIFYGNMYCSILLLACISINRYLAIVHPFTYRGLPKHTYALVTCGLVWATVFLYMLPFFILKQEYYLVQPDITTCHDVHNTCESSSPFQLYYFISLAFFGFLIPFVLIIYCYAAIIRTLNAYDHRWLWYVKASLLILVIFTICFAPSNIILIIHHANYYYNNTDGLYFIYLIALCLGSLNSCLDPFLYFLMSKTRNHSTAYLTK [F2RL2] :: 221
4) MTNSSFFCPVYKDLEPFTYFFYLVFLVGIIGSCFATWAFIQKNTNHRCVSIYLINLLTADFLLTLALPVKIVVDLGVAPWKLKIFHCQVTACLIYINMYLSIIFLAFVSIDRCLQLTHSCKIYRIQEPGFAKMISTVVWLMVLLIMVPNMMIPIKDIKEKSNVGCMEFKKEFGRNWHLLTNFICVAIFLNFSAIILISNCLVIRQLYRNKDNENYPNVKKALINILLVTTGYIICFVPYHIVRIPYTLSQTEVITDCSTRISLFKAKEATLLLAVSNLCFDPILYYHLSKAFRSKVTETFASPKETKAQKEKLRCENNA [GPR171] :: 455
